# experiment_summary: yeast display, Sf9 membrane polyspecificity reagent, FACS + sequencing; frameworks hold sequencing errors
readout_name: polyreactivity (PSR sort gate)

Example entries and their recorded answers appear below.
## Task // lookup polyreactivity (PSR sort gate) for `QVQLVESGGGLVQAGGSLRLSCAASGGIFLYYAMGWYSQAPGKVRELVAAISSRGGSTYYAHSVKGRYTISRDNAKNTVYLQMNSLKPEDTAVYYCAAESGYYRRTGIFYSWGQGTHVTVSS`
## Result high polyreactivity

## Task // lookup polyreactivity (PSR sort gate) for `QGQLVESGGGLVQAGGSLRLSCAASGSIFGENAMGWYRPAPGKERELVAAISSAGSTKYADSVKGRFTISRDNAKNTVYLQMNSLKPEDTAVYYCAAGYYRTSYPYSYYYWGQGTQVTVSS`
## Result low polyreactivity

## Task // lookup polyreactivity (PSR sort gate) for `QDQLVESGGCLVQAGGSHRLSSAASGIIIWYNTMGRYRQAPGKEREFFARISRRVGSTYYADSVKGRFTISRDNAKNTVYLQMNSLKPEDTAVYYCNRTRYRSFHYDYWGQGTKVTVSS`
## Result high polyreactivity

## Task // lookup polyreactivity (PSR sort gate) for `QVQLVESGGGLVQAGGSLRLSCAASGFTFSHYAMGWYRQAPGKERELVAAITASGGNTYYADSVKGRFTISRDNAKNTVYLQMNSLKPEDTAVYYCNAVSLKFTRKYDYWGQGTQVTVSS`
## Result high polyreactivity

## Task // lookup polyreactivity (PSR sort gate) for `QVQLVVSGGGLVQAGGSLRLSCAASGRIFVINAMGWYRQAPGNERELVAAITWIGGTTYYADSVKGRFTISRDNAKNTVYLQLNSLKREDTAVYYCARQRSYGRSSYSYGYDYWGQGTQVTVSS`
## Result high polyreactivity

## Task // lookup polyreactivity (PSR sort gate) for `QVQLVESAGGLVQAGGSLRLSCAASGSIFYTYAMGWYRQAPGKERELVAAISGSGTSTYYADSVKGRFTISRDNAKNTVYLQMNSLKPEDTAVYYCATDGGAAWGRYYWDYGYWGQGTQVTVSS`
## Result low polyreactivity

Others:
## Task // lookup polyreactivity (PSR sort gate) for `QVQLVESGAGLVQAGGSLRLSCAASGSIFWYNAMGWYRQAPGKERELVAAITSGGTTSYADSVKGRFTISRDNAKNTVYLQMNSLKPEDTAVYYCNADAVPFPTLVTYLYDYWGQGTQVSVSS`
## Result low polyreactivity

## Task // lookup polyreactivity (PSR sort gate) for `QVQLVESGGGLVQARVSLRLSCPASGRIFARYALGSSRQAPGTEREFVAAISRGGSTKYADSEKGRFTISRDNAKNTVYLQMNSLKPEDTAVYYCARQLWGSAYGAYYAGDYWGQGTQVTVSS`
## Result low polyreactivity

----------
# experiment_summary: yeast display, Sf9 membrane polyspecificity reagent, FACS + sequencing; frameworks hold sequencing errors
readout_name: polyreactivity (PSR sort gate)

## Task // lookup polyreactivity (PSR sort gate) for `QVQLVESGGGLDQAGGSLRLSCAASALIFSSYAMGWYRQAPGKERELVAAITGSGGRTYYADSVKGRFTISRDNAKNTVYLQMNSLKPEDTAVYYCAAKYPAPRYYTGYDYWGQGTQVTVSS`
## Result high polyreactivity

## Task // lookup polyreactivity (PSR sort gate) for `QVQLVESGGGLVQAGGSLRLSCAASGYTIWHYAMGWYRQAPGKEREFVATISSGGSTYYADSVKGRFTISRDNAKNTVYLQMNSLKPEDTAVYYCAVDIWGGEGYDSWGQGTQVTVSS`
## Result low polyreactivity

## Task // lookup polyreactivity (PSR sort gate) for `QVQLVESGGGLVQAGGSLRLICAASGFTFHSYAMGWYRQAPGKERELVAAITTDGSTYYADSVKGRFTISRDNAKNTVYLQMTSLKPEDTAVYYCAAGKAYWYARKPYARYYYWGQGTQVTVSS`
## Result high polyreactivity

## Task // lookup polyreactivity (PSR sort gate) for `QVQLVESGGGLVQAGGSLRLSCAASGIIIRSYAMGWDRQAPGKERELVAAITRSGGSTYADSVKGRFTISRDNAKNTVYLQKNSLKPEDTAVYYCAADRYSGWVYRRDDWGQGTQVPVSS`
## Result low polyreactivity

We now examine a further sequence.
## Task // lookup polyreactivity (PSR sort gate) for `QVQLVESGGCLVQAGGSLRLSCAASGLTFRYYAMGWYRQAPGKERELVAAITASVGSTYYADSVKGRFTISRDNAKNTVYLQMNSLKPEDTAVYYCAADSEQDNLRYYRWVWYDYWGQGTQVTVSS`
## Result low polyreactivity

----------
# experiment_summary: yeast display, Sf9 membrane polyspecificity reagent, FACS + sequencing; frameworks hold sequencing errors
readout_name: polyreactivity (PSR sort gate)

Example entries and their recorded answers appear below.
## Task // lookup polyreactivity (PSR sort gate) for `QVQLVESGGRLVQAGGSLRLICAASGSICTHNAMGWYRQAPGKERELVADITSSVSSTYYADSVKGRFTISRDNSKNTVDLQMNSLKPEDTSVYYCAGGVGRGMYYWGQGTQVTVSS`
## Result low polyreactivity

## Task // lookup polyreactivity (PSR sort gate) for `QVQLVESGGGLVQAGGSLRLSCAASGRIFRYYAMGWSRQAPGKERELVAAISSSGGSTYYADSVKGRFTISRDNAKNTVYLQMNSLKPEDTAVYYCAGVFRLGVGYEYWGQGTQVTVSS`
## Result high polyreactivity

## Task // lookup polyreactivity (PSR sort gate) for `QVQLVESGGGLVQAGGSLRLSCAASGITFNLYAMGWYRQAPGKEREFVAVITASGSSTYYADSVKGRFTISRDNAKNTVYLQMNSLKPEDTAVYYCAARWHIYYFSYVTSYAYGYWGQGTQVTVSS`
## Result high polyreactivity

## Task // lookup polyreactivity (PSR sort gate) for `QDQLVESGGGLVQAGGSLRLSCAASGSIFLDNAMGWYRQAPGKERELVAAISKSGTRTYYADSVKGRFTISRDNAKNTVYLQMNSLKPEDTAVYYCNVVPKQAKSVELIGYYYWGQGTQVTVSS`
## Result high polyreactivity

## Task // lookup polyreactivity (PSR sort gate) for `QVQLVESGGGLVQAGGSLRLSCAASGRTFDRYAMGWYRQAPGKERELVAAISSGGSTYYADSVKGRFTISRDNAKNTVYLQMNSLKPEDTAVYYCAAGESGSFFIYYYWGQGTQVTVSS`
## Result low polyreactivity

Others:
## Task // lookup polyreactivity (PSR sort gate) for `QVQLVESGGGLVQAGGSLRLSCAASGFTFERYAMGWYRPAPGKDRELVAAITGSGGSTYYADSVKGRFTIARDNATNTVYLQMNSLKPEDTAFYYCARDSSLFRLRDYWGQGTQVTVSS`
## Result low polyreactivity

## Task // lookup polyreactivity (PSR sort gate) for `QVQLVESGGGLVQAGGSLRLSCAASGSTFPTYAMGWYRQAPGKERELVADITWSGGSTYYADSVKGRFTISRDNAKNTVYLQMNSLKPEDTAVYYCNAAHRKGMYYWGQGTQVTVSS`
## Result high polyreactivity

----------
# experiment_summary: yeast display, Sf9 membrane polyspecificity reagent, FACS + sequencing; frameworks hold sequencing errors
readout_name: polyreactivity (PSR sort gate)

Example entries and their recorded answers appear below.
## Task // lookup polyreactivity (PSR sort gate) for `QVQLVESGGGLVQAGGSLRLSCAASGSTFGVNAKGWYREAPGKERELVAGITSSGGSTYYADSVKGRFTTSRDNAKNTVYLQMNSLKPEDTAVYYCAARWIPASYGYGYWGQGTQVTVSS`
## Result low polyreactivity

## Task // lookup polyreactivity (PSR sort gate) for `QVQLVESGGGLVQAGGSLRLSCSASGSTIPVYAMGWYRQPPGKERELVAAITGSGARTYYADSVKGRFTFSRDNAKNTVYLQMNSLKPEDTAVYYCAKRTVIAVYGFPYRYGMNYWGQGTQVTVSS`
## Result high polyreactivity

## Task // lookup polyreactivity (PSR sort gate) for `QVQLVESGGGLVQAGGSLRLTCAASGYTFRRYAMGWYRQAPGKERELVAAITRDDSTNYADSVKGRFTISRDNGKNTVYLQMNSLKPEDTAVYYCAAAVGLRRYSPLHLLYYYWGQGTQVTVSS`
## Result high polyreactivity

## Task // lookup polyreactivity (PSR sort gate) for `QVQLVESGGGLVQAGRSHRLSCAASGSIFPVYVMGWYRQAPGKERELVAAISQSSGGTYYADSVKGRFTISRDNATITVYLQMNSLKPEDTAVYYCAARITAIQGQRYYWGQGTQVTVSS`
## Result high polyreactivity

## Task // lookup polyreactivity (PSR sort gate) for `QVQLVESGGGLVQAGGSLRLSCAASGITFRHYDMGWYRQAPGKERELVAAITSRGGSTYYADSVKGRFTISRDNAKNTVYLQMNSLKPQDTAVYYCNKRLYYQRWPAAAREYWGQGTQVTVSS`
## Result high polyreactivity

Others:
## Task // lookup polyreactivity (PSR sort gate) for `QDQLVESGGGLVQAGGSLRLSCAASGLTFRKNAMGWSRQAPGKERELVAAISTGGRTYYADSVKGRFTISRDNAKNTVYLQMNSLKPEDTAVYYCNTVYVKSGLDYWGQGTQVTVSS`
## Result high polyreactivity

## Task // lookup polyreactivity (PSR sort gate) for `QVQLVESGGGLVQAGGSLRLSCAASGRTFGLYAMGWYRQAPGKERELVAAIDQSTGSTYYADSVKGRFTISRDNAKNTVYLQMNRLKPEDTAVYYCAAEEASTVRYYWYDYWGQGTQVTVSS`
## Result high polyreactivity

## Task // lookup polyreactivity (PSR sort gate) for `QVQLVESGGGLVQAGGSLRLSCAASGGTFVRYAMGGYRPAPGKERELVAAISSRGGSTYYADSVKGRFTISRDNAKNTVFLQMNSLKPEDTAVYYCAARPGYYDFYWGQGTQVTVSS`
## Result high polyreactivity

## Task // lookup polyreactivity (PSR sort gate) for `QVQLVESGGGLVQAGGSLRLSCAASGITLTKYAMGWYRQAPGKERELVAAISKRGTNTYYADSVKGRFTISRDNAKNTVYLQMNSLKPEDTAVYYCNAPGHRQNGLGDYWGQGTQVTVSS`
## Result high polyreactivity

## Task // lookup polyreactivity (PSR sort gate) for `QVQLVESGGGLVQAGGSLRLSCAASGSTFRYNAMGWYRQAPGKERELVAAISRIGGTTYADSVKGRFTISRDNAKNTVYLQMNSLKPEDTAVYYCARANWGYYGPEYGYWGQGTQVTVSS`
## Result low polyreactivity

## Task // lookup polyreactivity (PSR sort gate) for `QVQLVESGGGLVQAGGSLRLSCAASGSIFYYNAMGWYRQAPGKERELVAAITRSGGRTYYADSVKGRFTISRDNAKTTVYLQMNSLKPEDTAVYSCAARSAGPVTTLKYYYWGHGTQVTVSS`
## Result high polyreactivity
